Biological target: T1, C-terminal domain-deleted human Regnase-1 (amino acids 1 to 546) with N-terminal FLAG tag and C-terminal BirA … (human, UniProt Q5D1E8 1-546)
T1 sequence: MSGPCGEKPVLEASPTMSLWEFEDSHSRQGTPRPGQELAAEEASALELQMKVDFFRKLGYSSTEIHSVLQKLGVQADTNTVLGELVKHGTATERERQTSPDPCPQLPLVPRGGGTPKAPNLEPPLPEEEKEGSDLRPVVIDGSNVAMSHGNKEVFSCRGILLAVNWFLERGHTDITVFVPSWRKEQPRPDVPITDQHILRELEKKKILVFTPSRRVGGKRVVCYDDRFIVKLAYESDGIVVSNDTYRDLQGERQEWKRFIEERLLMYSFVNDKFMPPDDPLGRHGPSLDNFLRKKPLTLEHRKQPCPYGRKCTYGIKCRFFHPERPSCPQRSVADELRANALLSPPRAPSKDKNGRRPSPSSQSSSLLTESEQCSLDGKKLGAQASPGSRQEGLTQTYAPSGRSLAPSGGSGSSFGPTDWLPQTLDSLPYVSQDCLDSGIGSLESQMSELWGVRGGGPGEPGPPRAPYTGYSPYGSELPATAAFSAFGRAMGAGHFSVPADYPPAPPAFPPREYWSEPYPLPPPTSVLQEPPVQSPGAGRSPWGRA
Experiment: cell-based or functional assay
Positions of bridges follow the written chain, without caps; N, C: chain ends. Non-standard residues stand in square brackets, D forms with d. *: point of attachment. Pyrrolidide = C1CCN(*)C1; dNMeA = CN[C@H](C)C(=O)O
Measure: 50% inhibition concentration, Regnase-1 phosphorylation by TBK1 (AlphaScreen) (µM)
Hi! Could you send only the number? It should be in µM, unit omitted.

Input: // query 50% inhibition concentration, Regnase-1 phosphorylation by TBK1 (AlphaScreen) value for entry [dNMeA]KHASAWYRIWD-Pyrrolidide (lactam N-12) [PP3]
Output: 5.7

Input: // query 50% inhibition concentration, Regnase-1 phosphorylation by TBK1 (AlphaScreen) value for entry XGYANSWYNIWD (HELM PEPTIDE1{[meA].G.Y.A.N.S.W.Y.N.I.W.D.[C1CCN([*:1])C1]}$PEPTIDE1,PEPTIDE1,1:R1-12:R3$$$V2.0; SMILES CC[C@H](C)[C@@H]1NC(=O)[C@H](CC(N)=O)NC(=O)[C@H](Cc2ccc(O)cc2)NC(=O)[C@H](Cc2c[nH]c3ccccc23)NC(=O)[C@H](CO)NC(=O)[C@H](CC(N)=O)NC(=O)[C@H](C)NC(=O)[C@H](Cc2ccc(O)cc2)NC(=O)CNC(=O)[C@H](C)N(C)C(=O)C[C@@H](C(=O)N2CCCC2)NC(=O)[C@H](Cc2c[nH]c3ccccc23)NC1=O) [PP2]
Output: 17.6

Input: // query 50% inhibition concentration, Regnase-1 phosphorylation by TBK1 (AlphaScreen) value for entry XPNSSWFKIWD (HELM PEPTIDE1{[C[C@H](C(=O)[*:2])N(C)[*:1]].P.N.S.S.W.F.K.I.W.D.[C1CCN([*:1])C1]}$PEPTIDE1,PEPTIDE1,1:R1-11:R3$$$V2.0; SMILES CC[C@H](C)[C@@H]1NC(=O)[C@H](CCCCN)NC(=O)[C@H](Cc2ccccc2)NC(=O)[C@H](Cc2c[nH]c3ccccc23)NC(=O)[C@H](CO)NC(=O)[C@H](CO)NC(=O)[C@H](CC(N)=O)NC(=O)[C@@H]2CCCN2C(=O)[C@@H](C)N(C)C(=O)C[C@@H](C(=O)N2CCCC2)NC(=O)[C@H](Cc2c[nH]c3ccccc23)NC1=O) [PP6]
Output: 14.5

Input: // query 50% inhibition concentration, Regnase-1 phosphorylation by TBK1 (AlphaScreen) value for entry XHSNAWYNIWD (HELM PEPTIDE1{[meA].H.S.N.A.W.Y.N.I.W.D.[C1CCN([*:1])C1]}$PEPTIDE1,PEPTIDE1,1:R1-11:R3$$$V2.0; SMILES CC[C@H](C)[C@@H]1NC(=O)[C@H](CC(N)=O)NC(=O)[C@H](Cc2ccc(O)cc2)NC(=O)[C@H](Cc2c[nH]c3ccccc23)NC(=O)[C@H](C)NC(=O)[C@H](CC(N)=O)NC(=O)[C@H](CO)NC(=O)[C@H](Cc2c[nH]cn2)NC(=O)[C@H](C)N(C)C(=O)C[C@@H](C(=O)N2CCCC2)NC(=O)[C@H](Cc2c[nH]c3ccccc23)NC1=O) [PP5]
Output: 19.1
